property: melting point (°C)
Entry rule: numbers only, all in °C.

Sample C[C@@H]1c2ccccc2CCN1C(=O)c1cc(C2CC2)n2nc(-c3ccc(N4CCCC(O)C4)cc3F)cc2n1 (stereo partly drawn) — what was its melting point? 197.51

Sample `COCCOc1cc(N2CC[C@H](C(N)=O)C2)nc(F)c1-c1cc2nc(C(=O)N3CCc4ccccc4[C@H]3C)cc(C3CC3)n2n1` — what was its melting point? 152.28

Sample `CNC(=O)[C@H]1CCN(c2ccc(-c3cc4nc(C(=O)N5CCc6ccccc6[C@H]5C)cc(C5CC5)n4n3)c(F)c2)C1` — what was its melting point? 123.18

Sample C[C@@H]1c2ccccc2CCN1C(=O)c1cc(C2CC2)n2nc(-c3ccc(N4CC[C@@H](S(C)(=N)=O)C4)cc3F)cc2n1 (stereo partly drawn) — what was its melting point? 285.54

Sample `C[C@@H]1c2ccccc2CCN1C(=O)c1cc(-c2ccccn2)n2nc(-c3ccc(N4CC[C@H](C(N)=O)C4)cc3F)cc2n1` — what was its melting point? 252.18

Sample `C[C@@H]1c2ccccc2CCN1C(=O)c1cc(-c2ccc(C#N)cc2)n2nc(-c3ccc(N4CC[C@H](C(N)=O)C4)cc3F)cc2n1` — what was its melting point? 173.36
